# target-entity: LRRK2 (Homo sapiens, UniProt Q5S007, G2019S)
# Construct: purchased Invitrogen PV4882 (lot 567054A)
# Sequence (Q5S007 whole entry G2019S): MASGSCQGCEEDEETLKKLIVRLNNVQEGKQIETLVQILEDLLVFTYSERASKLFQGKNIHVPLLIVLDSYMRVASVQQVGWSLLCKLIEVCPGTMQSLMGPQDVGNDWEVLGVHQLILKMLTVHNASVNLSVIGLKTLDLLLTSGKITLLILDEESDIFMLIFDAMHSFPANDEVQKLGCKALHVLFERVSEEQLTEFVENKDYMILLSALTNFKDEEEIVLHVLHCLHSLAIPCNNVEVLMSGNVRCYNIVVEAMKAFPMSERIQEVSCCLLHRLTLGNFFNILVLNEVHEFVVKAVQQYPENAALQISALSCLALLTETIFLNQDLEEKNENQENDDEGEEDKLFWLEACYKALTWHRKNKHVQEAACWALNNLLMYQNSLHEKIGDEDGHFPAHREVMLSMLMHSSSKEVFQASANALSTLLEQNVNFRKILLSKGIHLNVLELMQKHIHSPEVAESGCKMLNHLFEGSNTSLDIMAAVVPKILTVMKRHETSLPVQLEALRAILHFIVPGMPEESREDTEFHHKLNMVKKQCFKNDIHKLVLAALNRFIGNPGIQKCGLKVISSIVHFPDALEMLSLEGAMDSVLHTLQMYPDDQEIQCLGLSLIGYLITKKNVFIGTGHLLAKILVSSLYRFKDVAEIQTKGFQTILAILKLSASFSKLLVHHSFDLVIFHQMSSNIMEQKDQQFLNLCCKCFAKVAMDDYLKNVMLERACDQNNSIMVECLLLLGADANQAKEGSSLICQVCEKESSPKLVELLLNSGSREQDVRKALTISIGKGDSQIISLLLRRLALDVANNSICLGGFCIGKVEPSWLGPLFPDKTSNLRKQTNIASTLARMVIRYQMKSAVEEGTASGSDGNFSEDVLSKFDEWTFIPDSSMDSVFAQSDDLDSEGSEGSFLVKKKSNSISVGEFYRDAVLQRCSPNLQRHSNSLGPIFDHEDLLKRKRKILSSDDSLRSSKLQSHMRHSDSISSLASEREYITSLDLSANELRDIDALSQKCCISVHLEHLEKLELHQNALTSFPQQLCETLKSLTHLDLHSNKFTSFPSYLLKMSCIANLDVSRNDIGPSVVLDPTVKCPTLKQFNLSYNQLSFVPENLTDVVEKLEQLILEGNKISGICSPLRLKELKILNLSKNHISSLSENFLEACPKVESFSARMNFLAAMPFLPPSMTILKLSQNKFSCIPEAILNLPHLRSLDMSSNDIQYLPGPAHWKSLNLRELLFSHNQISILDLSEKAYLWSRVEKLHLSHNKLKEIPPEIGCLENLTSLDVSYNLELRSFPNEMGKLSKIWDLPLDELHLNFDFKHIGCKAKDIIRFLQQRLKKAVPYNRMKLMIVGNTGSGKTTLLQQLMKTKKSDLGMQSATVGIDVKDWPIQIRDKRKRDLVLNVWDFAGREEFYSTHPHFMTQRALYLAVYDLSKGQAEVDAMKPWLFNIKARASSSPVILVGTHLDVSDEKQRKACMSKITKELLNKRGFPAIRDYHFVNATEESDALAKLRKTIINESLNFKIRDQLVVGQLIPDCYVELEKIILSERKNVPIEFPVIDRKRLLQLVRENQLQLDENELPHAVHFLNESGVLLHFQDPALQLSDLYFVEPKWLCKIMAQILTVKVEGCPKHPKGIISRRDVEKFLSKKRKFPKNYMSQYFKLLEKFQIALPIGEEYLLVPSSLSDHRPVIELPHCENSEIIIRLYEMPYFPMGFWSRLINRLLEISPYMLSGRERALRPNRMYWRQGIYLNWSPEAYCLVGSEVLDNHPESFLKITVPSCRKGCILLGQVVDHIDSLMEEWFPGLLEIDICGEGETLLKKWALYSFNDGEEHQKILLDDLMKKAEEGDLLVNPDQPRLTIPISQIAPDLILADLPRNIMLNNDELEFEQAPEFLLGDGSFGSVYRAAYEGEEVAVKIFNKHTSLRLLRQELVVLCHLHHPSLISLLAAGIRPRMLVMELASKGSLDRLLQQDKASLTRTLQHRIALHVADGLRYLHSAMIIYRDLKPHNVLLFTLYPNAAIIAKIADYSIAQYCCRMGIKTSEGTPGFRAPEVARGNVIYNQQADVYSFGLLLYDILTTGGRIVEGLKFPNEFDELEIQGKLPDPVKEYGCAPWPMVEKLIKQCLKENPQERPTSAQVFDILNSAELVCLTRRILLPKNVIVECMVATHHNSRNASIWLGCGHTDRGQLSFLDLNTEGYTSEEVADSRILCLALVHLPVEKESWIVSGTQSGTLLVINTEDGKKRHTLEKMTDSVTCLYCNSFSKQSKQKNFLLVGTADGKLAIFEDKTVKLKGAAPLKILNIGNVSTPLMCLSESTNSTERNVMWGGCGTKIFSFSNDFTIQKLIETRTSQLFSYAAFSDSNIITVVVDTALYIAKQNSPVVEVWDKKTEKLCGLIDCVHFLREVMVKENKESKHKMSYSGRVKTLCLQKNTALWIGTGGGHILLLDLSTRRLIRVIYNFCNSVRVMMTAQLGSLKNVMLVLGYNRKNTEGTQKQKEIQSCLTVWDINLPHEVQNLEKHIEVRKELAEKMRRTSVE
# method: In Vitro LRRK2 Assay (LabChip 3000, fluorescently-labeled peptide substrate, ATP)
# Type: biochemical
# study-conditions: read-out: LRRK2 Ki (KI), Table 8
# Method: This assay was used to determine a compound's potency in inhibiting activity of LRRK2 by determining, Kiapp, IC50, or percent inhibition values. […] The relative amounts of each were quantitated by fluorescence intensity. LRRK2 Ki was determined according to the equation: Y=V0*(1−(x+Ki*(1+S/Km)+Et)/(2*Et)−(((x+Ki*(1+S/Km)+Et)^2−(4*Et*x))^0.5)/(2*Et))). […] The plate was incubated for 2 hours in the dark. […] Results were read on the LabChip 3000. […]
readout-name: Ki (nM)
I only need the number, in nM, no unit after it.

{"compound": "CCNc1nc(Nc2cn(C3CCOCC3)nc2C)ncc1C(F)(F)F [Example 159]", "readout-name": "Ki", "result-value": 3.9}
{"compound": "COc1nc(Nc2cnn(C3CCN(CCF)CC3)c2C)ncc1Cl [Example 292]", "readout-name": "Ki", "result-value": 4.2}
{"compound": "CCNc1nc(Nc2cnn(-c3ccc(C(=O)N(C)C)cc3)c2C)ncc1C(F)(F)F [Example 157]", "readout-name": "Ki", "result-value": 0.3}
{"compound": "CCNc1nc(Nc2cn(C3CN(C4COC4)C3)nc2C)ncc1C(F)(F)F [Example 182]", "readout-name": "Ki", "result-value": 1.5}
{"compound": "CNc1nc(Nc2cnn(C3CCN(CC(F)(F)F)CC3)c2C)ncc1Br [Example 93]", "readout-name": "Ki", "result-value": 1.4}
{"compound": "CCNc1nc(Nc2cnn(-c3ccc(S(=O)(=O)C4CC4)cc3)c2C)ncc1C(F)(F)F [Example 174]", "readout-name": "Ki", "result-value": 1.1}
{"compound": "CNc1nc(Nc2cnn(C3CCN(C)CC3F)c2Cl)ncc1C(F)(F)F (stereo not drawn) [Example 241]", "readout-name": "Ki", "result-value": 1.8}
{"compound": "CNc1nc(Nc2cnn(C3CCN(C4COC4)CC3F)c2Cl)ncc1C(F)(F)F (stereo not drawn) [Example 305]", "readout-name": "Ki", "result-value": 2.2}

Now for a further compound.
Item: CNc1nc(Nc2cn(Cc3ccncn3)nc2C)ncc1C(F)(F)F [Example 329] | Ki: 5.2

###

# target-entity: LRRK2 (Homo sapiens, UniProt Q5S007, G2019S)
# Construct: purchased Invitrogen PV4882 (lot 567054A)
# method: In Vitro LRRK2 Assay (LabChip 3000, fluorescently-labeled peptide substrate, ATP)
# Type: biochemical
# study-conditions: read-out: LRRK2 Ki (KI), Table 7
# Ki values compiled below

A selection of reference data follows.
{"input-smiles": "COc1nc(Nc2cn(C3CCN(CCF)CC3)nc2C)ncc1Cl", "readout-name": "Ki", "result-value": "183 nM"}
{"input-smiles": "COc1nc(Nc2cn(-c3ccc(S(C)(=O)=O)cc3)nc2C)ncc1Cl", "readout-name": "Ki", "result-value": "2.2 nM"}
{"input-smiles": "COc1nc(Nc2cn(C3COC3)nc2C)ncc1Cl", "readout-name": "Ki", "result-value": "22 nM"}

// moving on: another record for Ki
So, "COc1nc(Nc2cnn(C)c2C)ncc1Cl" ? Its Ki was 9.1 nM

Taken from patent US8815882B2.
